For each of the compounds below, state its growth.
System: SNB-19 CNS
Test: NCI-60 one-dose screen, 48 h (100 = growth as untreated, 0 = no growth, -100 = all killed)
Conditions: 10 µM unless noted
Procedure: Growth inhibition of the SNB-19 human tumor cell line is measured as a screen for anti-cancer activity. Cells are grown in 96 well plates and exposed to the test compound for 48 hours. Compounds are tested at a single concentration, which is 10^-5 M for most compounds. The reported endpoint is percent growth (GI% or GIPRCNT), where numbers from 0 - 100% represent growth inhibition, and numbers from -100% - 0 represent cell death. For example, a value of 40 represents 60% growth inhibition. […]
This is part of a sample that, as a whole, favours compounds with a hit. Of some 83,000 tested, about 20% had one in any assay.
Use % as the unit, but write only the number.

For the record CN(C)c1ccc(/C=C/C(=O)c2ccccc2)cc1 , what value of growth is listed for SNB-19 CNS?
90.4

Moving on to the next compound: COc1ccc(C2=CN3CC=CCC3CC2=O)cc1 (stereo not given)
107

// query: COCC[C@H]1CCC/C=C/[C@@H]2C[C@H](O)C[C@H]2[C@H](O)/C=C/C(=O)O1
30.2

What do you get for CCOC(=O)Cn1c(=O)c2c3ccccc3n(C)c2n2nnc(-c3ccccc3)c12 ?
115

Moving on to Fc1ccc2c(c1)c(-c1nc(-c3c[nH]c4ncccc34)cs1)cn2CCCN1CCOCC1
62.7

Entry COc1ccc2cc(Cn3cc[n+](Cc4ccc5ccccc5c4)c3)ccc2c1 please
31.6

Now this one: CC(=O)N/C(=C1/OC(C(O)C(O)C(O)CO)CN1C)[P+](c1ccccc1)(c1ccccc1)c1ccccc1 (stereo not given)
91.2

One more compound: COc1cc(-c2nc3ccc(C)cc3[nH]2)ccc1OCC(=O)N=Nc1c(O)[nH]c2ccc(Cl)cc12
3.43

Try this compound next: O=C(/C=C/c1ccc(Br)cc1)c1ccc(-n2cc(CN3CCN(c4cc5c(cc4F)c(=O)c(C(=O)O)cn5C4CC4)CC3)nn2)cc1
86.9

Please give the result for Brc1ccc(-c2cnc3nonc3n2)cc1 too.
88.2
